List of GI50 values.
# System: UACC-257 melanoma
# method.summary: NCI tumour cell line growth inhibition, 48 h

Check out these entries, answers already filled in.
- compound: "COC(=O)c1ccc(C2SC(C)C(=O)N2NC(=O)C(O)c2ccccc2)cc1 (stereo not drawn)"
  measure.name: "GI50"
  value: "> 100 µM"
- compound: "COc1ccc(CCc2nc3cc(-c4c(C)noc4C)ccc3n2CCN2CCOCC2)cc1"
  measure.name: "GI50"
  value: "13.6 µM"

Consider the additional compound presented here.
Record CCCCCCCCCCCCCCCC(=O)Nc1ccn([C@@H]2O[C@H](CO)[C@@H](O)[C@@H]2C#N)c(=O)n1 , field GI50: 46.3 µM

====

# Tested on: SF-268 CNS
# method.summary: NCI tumour cell line growth inhibition, 48 h
measure.name: TGI

- compound: "O=C(OC1C(Oc2ccccc2COC(=O)C2(O)C=CCCC2=O)OC(CO)C(O)C1O)c1ccccc1 (stereo not drawn)"
  TGI: "93.5 µM"
- compound: "COC(=O)C(C)NP(=O)(OCc1ccc(Cn2cnc3c(N)ncnc32)cc1)Oc1ccccc1 (stereo not drawn)"
  TGI: "> 100 µM"
- compound: "c1ccc(P2c3ccccc3Nc3ccccc32)cc1"
  TGI: "> 100 µM"

Record S=C1Nc2cnc3ccccc3c2SC1c1ccccc1 (stereo not drawn) , field TGI: > 100 µM

Record Cc1ccc(C(=O)N/N=C(\N=Nc2cccc(C)c2)c2ccc(N(CCC#N)CCC#N)cc2C)cc1 , field TGI: > 100 µM

Record COc1ccc(/C=C(/C(=O)N2CCCCC2)c2cc(OC)c(OC)c(OC)c2)cc1 , field TGI: > 100 µM

====

# System: OVCAR-4 ovarian
# method.summary: NCI tumour cell line growth inhibition, 48 h
measure.name: TGI

- compound: "CS(=O)(=O)Nc1ccc2c(c1)N(S(C)(=O)=O)CC2COS(C)(=O)=O (stereo not drawn)"
  assayed.system: "OVCAR-4 ovarian"
  value: "> 100 µM"
- compound: "O=C1C=CC2(NN=C(c3ccccc3)N2c2ccccc2)c2cccc(O)c21 (stereo not drawn)"
  assayed.system: "OVCAR-4 ovarian"
  value: "3.21 µM"
- compound: "CCCC(=O)Nc1ccc(O)c2c1C1CCCCCC21 (stereo not drawn)"
  assayed.system: "OVCAR-4 ovarian"
  value: "> 100 µM"
- compound: "c1ccc(P2c3ccccc3Nc3ccccc32)cc1"
  assayed.system: "OVCAR-4 ovarian"
  value: "> 100 µM"
- compound: "O=c1oc2c([N+](=O)[O-])cc([N+](=O)[O-])cc2c2ccccc12"
  assayed.system: "OVCAR-4 ovarian"
  value: "> 100 µM"
- compound: "CCC(C)CN=C(N)c1ccc(N2CCN(c3ccc(C(N)=NCC(C)CC)cc3)CC2)cc1 (stereo not drawn)"
  assayed.system: "OVCAR-4 ovarian"
  value: "> 100 µM"
- compound: "Cc1cccc(-n2cnc3cc(C(=O)N4CCCCC4)ccc32)c1"
  assayed.system: "OVCAR-4 ovarian"
  value: "> 100 µM"
- compound: "C/C(=N\\Nc1nc2ccccc2o1)c1ccc2ccccc2n1"
  assayed.system: "OVCAR-4 ovarian"
  value: "5.59 µM"
- compound: "COC(=O)C(/C(=N/NC(N)=O)C(=O)Nc1c(C)cccc1C(C)(C)C)c1nc2ccc(Cl)cc2[nH]c1=O (stereo not drawn)"
  assayed.system: "OVCAR-4 ovarian"
  value: "> 100 µM"
- compound: "CC(C)C(=O)NCC[C@@H](CNC(=O)OC(C)(C)C)NC(=O)OC(C)(C)C"
  assayed.system: "OVCAR-4 ovarian"
  value: "> 100 µM"

Observed TGI, OVCAR-4 ovarian, COc1ccc2c(c1)C(=O)C1(C2)[C@H](c2ccccc2)C2C(=O)c3cc(OC)ccc3C2[C@H]1c1ccccc1 (stereo partly drawn) : > 100 µM

Observed TGI, OVCAR-4 ovarian, CC(C)(C(=O)NCC(F)(F)C(F)(F)F)C(=O)N[C@@H]1C(=O)Nc2ccccc2-c2ccccc21 : > 100 µM

Observed TGI, OVCAR-4 ovarian, O=C1OC(Cl)C(N=P(c2ccccc2)(c2ccccc2)c2ccccc2)=C1Cl (stereo not drawn) : > 100 µM

Observed TGI, OVCAR-4 ovarian, CC1C2CC(CC23OCC(CCl)O3)C1(C)C (stereo not drawn) : > 100 µM

Observed TGI, OVCAR-4 ovarian, Nc1nc2c3c(ncn3CC(O)CO2)n1 (stereo not drawn) : > 100 µM

Observed TGI, OVCAR-4 ovarian, CCOC(=O)c1ccc(O)cc1 : > 100 µM

Observed TGI, OVCAR-4 ovarian, CC1(C)OCC[C@@H]1[Si](C)(C)C : > 100 µM

Observed TGI, OVCAR-4 ovarian, Cc1ccc(I)cc1N=C=S : > 100 µM
